# maps each entry to its Neurogenesis # BrdU+ Cells (X10E06)/mm3 Dentate Gyrus
tested on: hippocampal neurogenesis (Dentate Gyrus); test: in vivo neurogenesis assay (BrdU+ cells in dentate gyrus); set-up: species or system mice; conditions: living mice; vehicle (DMSO) 7.3

{"compound": "O=S(=O)(CC(F)Cn1c2ccc(Br)cc2c2cc(Br)ccc21)c1cccc(O)c1 (stereo not drawn)", "measured_on": "hippocampal neurogenesis (Dentate Gyrus)", "result_value": "9.9 (X10E06)/mm3"}
{"compound": "FC(COc1ccccc1)Cn1c2ccc(Br)cc2c2cc(Br)ccc21 (stereo not drawn)", "measured_on": "hippocampal neurogenesis (Dentate Gyrus)", "result_value": "11.7 (X10E06)/mm3"}
{"compound": "N#Cc1ccc2c(c1)c1cc(C#N)ccc1n2CC(O)CSc1ccccc1 (stereo not drawn)", "measured_on": "hippocampal neurogenesis (Dentate Gyrus)", "result_value": "10.5 (X10E06)/mm3"}
{"compound": "CN(C)C(=O)COc1ccc(NCC(F)Cn2c3ccc(Br)cc3c3cc(Br)ccc32)cc1 (stereo not drawn)", "measured_on": "hippocampal neurogenesis (Dentate Gyrus)", "result_value": "7.4 (X10E06)/mm3"}

Q) Reported Neurogenesis # BrdU+ Cells (X10E06)/mm3 Dentate Gyrus for OC(CN1c2ccccc2CCc2ccccc21)Cn1ccc2ccccc21 (stereo not drawn) : what is it?
A) 11.4 (X10E06)/mm3

Q) Reported Neurogenesis # BrdU+ Cells (X10E06)/mm3 Dentate Gyrus, compound COc1cccc(NCC(O)Cn2c3ccc(Br)cc3c3cc(Br)ccc32)n1 (stereo not drawn) : ____
A) 13.1 (X10E06)/mm3

Q) For CC(C)NCC(O)CN1c2ccccc2CCc2ccccc21 (stereo not drawn) , what is its reported Neurogenesis # BrdU+ Cells (X10E06)/mm3 Dentate Gyrus?
A) 9.1 (X10E06)/mm3

Q) State the recorded Neurogenesis # BrdU+ Cells (X10E06)/mm3 Dentate Gyrus for this entry: OCCn1c2ccc(Br)cc2c2cc(Br)ccc21
A) 13.1 (X10E06)/mm3

Q) For COCCOCCOc1ccc(NCC(F)Cn2c3ccc(Br)cc3c3cc(Br)ccc32)cc1 (stereo not drawn) , what is its reported Neurogenesis # BrdU+ Cells (X10E06)/mm3 Dentate Gyrus?
A) 9.7 (X10E06)/mm3

Q) Requested read-out: Neurogenesis # BrdU+ Cells (X10E06)/mm3 Dentate Gyrus. Entry: O=C(CCCCCC1SCC2NC(=O)NC21)NCCCCCOc1cccc(NCC(O)Cn2c3ccc(Br)cc3c3cc(Br)ccc32)c1 (stereo not drawn)
A) 8.4 (X10E06)/mm3

Q) Dear colleague, I am looking for the recorded Neurogenesis # BrdU+ Cells (X10E06)/mm3 Dentate Gyrus of the following compound: CC(C)(C)NCC(O)CN1c2ccccc2CCc2ccccc21 (stereo not drawn)
A) 12.5 (X10E06)/mm3

Q) Given the compound COc1cccc(NCC(O)Cn2c3ccc(Cl)cc3c3cc(Cl)ccc32)c1 (stereo not drawn) , what is its reported Neurogenesis # BrdU+ Cells (X10E06)/mm3 Dentate Gyrus?
A) 7.6 (X10E06)/mm3

Q) For the compound shown here, COc1cccc(NCC(O)Cn2c3ccc(C#N)cc3c3cc(C#N)ccc32)c1 (stereo not drawn) , give the reported Neurogenesis # BrdU+ Cells (X10E06)/mm3 Dentate Gyrus.
A) 12.9 (X10E06)/mm3

Q) What does the data say about its Neurogenesis # BrdU+ Cells (X10E06)/mm3 Dentate Gyrus? Entry: OC(CNc1ccccc1)Cn1c2ccc(Br)cc2c2cc(Br)ccc21 (stereo not drawn)
A) 15.0 (X10E06)/mm3
